studyTarget: GST-Co-NF-kB (Capsaspora owczarzaki, UniProt F1ARL5 200-546)
Sequence: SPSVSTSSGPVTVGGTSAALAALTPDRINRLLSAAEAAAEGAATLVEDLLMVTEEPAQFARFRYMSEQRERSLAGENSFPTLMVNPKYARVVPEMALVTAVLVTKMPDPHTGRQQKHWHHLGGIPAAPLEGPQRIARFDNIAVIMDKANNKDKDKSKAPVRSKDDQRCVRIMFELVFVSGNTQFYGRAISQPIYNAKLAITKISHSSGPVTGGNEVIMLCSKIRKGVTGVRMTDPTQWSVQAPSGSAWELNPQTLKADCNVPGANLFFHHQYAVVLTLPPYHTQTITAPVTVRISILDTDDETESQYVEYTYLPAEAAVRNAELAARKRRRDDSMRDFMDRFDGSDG
protocolSummary: protein-binding microarray (PBM); PBM: ~300 nM protein, 6 mM HEPES pH 7.8, 80 mM KCl, 0.5 mM EDTA, 0.5 mM EGTA, 6% glycerol, 35 ng/ul poly-dIdC, 1% milk, 1 h, room temperature; Ap Aiptasia and Nv Nematostella (sea anemones) / Co Capsaspora / Aq Amphimedon (sponge) / Dm Drosophila / Hu human; RHD is the Rel homology domain; high values mean tight binding
appliedConditions: dsDNA, one strand shown
hey, just use Yes if measured binding signal is less than 5 z-score, otherwise No

>  <sequenceChain>
CCGATTAACATCAGCCCCCCGTCTGATGTTAATCGGGTCTTGATTCGCTTGACGCTGCTG

>  <classLabel>
Yes

$$$$
>  <sequenceChain>
CCGATTAACATCAATTCCCACCCTGATGTTAATCGGGTCTTGATTCGCTTGACGCTGCTG

>  <classLabel>
Yes

$$$$
>  <sequenceChain>
CCGATTAACATCAGGGGAGAATATGATGTTAATCGGGTCTTGATTCGCTTGACGCTGCTG

>  <classLabel>
No

$$$$
>  <sequenceChain>
CCGATTAACATCAAAACAGTCCCTGATGTTAATCGGGTCTTGATTCGCTTGACGCTGCTG

>  <classLabel>
Yes

$$$$
>  <sequenceChain>
CCGATTAACATCAAATAGTCCCCTGATGTTAATCGGGTCTTGATTCGCTTGACGCTGCTG

>  <classLabel>
Yes

$$$$
>  <sequenceChain>
CCGATTAACATCAAGTCTCCCCCTGATGTTAATCGGGTCTTGATTCGCTTGACGCTGCTG

>  <classLabel>
No

$$$$
>  <sequenceChain>
CCGATTAACATCACCCACTCCCCTGATGTTAATCGGGTCTTGATTCGCTTGACGCTGCTG

>  <classLabel>
Yes

$$$$
>  <sequenceChain>
CCGATTAACATCAATAGTTCCCCTGATGTTAATCGGGTCTTGATTCGCTTGACGCTGCTG

>  <classLabel>
No

$$$$
>  <sequenceChain>
CCGATTAACATCAACGTTTCCCCTGATGTTAATCGGGTCTTGATTCGCTTGACGCTGCTG

>  <classLabel>
No

$$$$
>  <sequenceChain>
CCGATTAACATCACCCACCCCCCTGATGTTAATCGGGTCTTGATTCGCTTGACGCTGCTG

>  <classLabel>
Yes

$$$$
>  <sequenceChain>
CCGATTAACATCAGGGGGGGTGATGATGTTAATCGGGTCTTGATTCGCTTGACGCTGCTG

>  <classLabel>
Yes

$$$$
>  <sequenceChain>
CCGATTAACATCAAGTATTCCCCTGATGTTAATCGGGTCTTGATTCGCTTGACGCTGCTG

>  <classLabel>
No

$$$$
>  <sequenceChain>
CCGATTAACATCAGGGCTCCCCCTGATGTTAATCGGGTCTTGATTCGCTTGACGCTGCTG

>  <classLabel>
Yes

$$$$
>  <sequenceChain>
CCGATTAACATCAGGGGGCGCACTGATGTTAATCGGGTCTTGATTCGCTTGACGCTGCTG

>  <classLabel>
Yes

$$$$
>  <sequenceChain>
CCGATTAACATCAGGGGGCTATATGATGTTAATCGGGTCTTGATTCGCTTGACGCTGCTG

>  <classLabel>
Yes

$$$$
>  <sequenceChain>
CCGATTAACATCATGGGTGGGAATGATGTTAATCGGGTCTTGATTCGCTTGACGCTGCTG

>  <classLabel>
Yes

$$$$
>  <sequenceChain>
CCGATTAACATCAAAGACCCCCCTGATGTTAATCGGGTCTTGATTCGCTTGACGCTGCTG

>  <classLabel>
Yes

$$$$
>  <sequenceChain>
CCGATTAACATCAAGGGGGGACTTGATGTTAATCGGGTCTTGATTCGCTTGACGCTGCTG

>  <classLabel>
No

$$$$
>  <sequenceChain>
CCGATTAACATCAAAAATCCCCATGATGTTAATCGGGTCTTGATTCGCTTGACGCTGCTG

>  <classLabel>
No

$$$$
>  <sequenceChain>
CCGATTAACATCAAATTTCCCTATGATGTTAATCGGGTCTTGATTCGCTTGACGCTGCTG

>  <classLabel>
Yes

$$$$
>  <sequenceChain>
CCGATTAACATCACATATCCCCCTGATGTTAATCGGGTCTTGATTCGCTTGACGCTGCTG

>  <classLabel>
No

$$$$
>  <sequenceChain>
CCGATTAACATCAGGGGAAGTTATGATGTTAATCGGGTCTTGATTCGCTTGACGCTGCTG

>  <classLabel>
No

$$$$
>  <sequenceChain>
CCGATTAACATCAGGGGATTAGATGATGTTAATCGGGTCTTGATTCGCTTGACGCTGCTG

>  <classLabel>
Yes

$$$$
>  <sequenceChain>
CCGATTAACATCAAGTTCCCCCATGATGTTAATCGGGTCTTGATTCGCTTGACGCTGCTG

>  <classLabel>
No

$$$$
>  <sequenceChain>
CCGATTAACATCAAGTTTTCCCATGATGTTAATCGGGTCTTGATTCGCTTGACGCTGCTG

>  <classLabel>
Yes

$$$$
